Measured RP-LC retention time accompanies every entry in the list below.
# method: gradient 5% acetonitrile 3 min, to 50% in 2 min, to 85% in 15 min, held 3 min, 100 µL/min
# condition: column: Zorbax Extend-C18 2.1 x 50 mm; eluents: water / acetonitrile, 0.1% formic acid

{"columns": ["molecule", "RP-LC retention time [s]"],
 "data": [
  ["COc1cccc(-n2nnc(C(=O)O)c2-c2ccncc2)c1", 628],
  ["CC(C)Cn1c(CCNC(=O)c2ccc(C#N)cc2)nc2cccnc21", 709],
  ["COc1cccc(NC(=O)NC2CCN(c3ccc(C)c(C)c3)C2=O)c1 (stereo not given)", 854],
  ["Cc1ccc(C(=O)N2CCc3cc(-c4ccno4)ccc32)cc1", 974],
  ["Cc1cccc(NC(=O)Nc2cnn(-c3ncncc3N3CCC(C)CC3)c2)c1", 761],
  ["CC(C)OCCCNC(=O)c1ccc2c(c1)CCCN2S(C)(=O)=O", 767],
  ["Cc1nn(CC(=O)NCCN2CCCCCC2)c(=O)c2nc(-c3ccccc3)sc12", 657],
  ["O=C(O)c1cnn2c(C(F)(F)F)cc(-c3ccc(F)cc3)nc12", 823],
  ["COc1ccccc1-c1nc(-c2ccc3c(c2)nnn3CCN(C)C)no1", 644],
  ["COc1ccc(-c2cc(C(=O)Nc3ccc4c(c3)CCC(=O)N4)c3ccccc3n2)cc1", 822],
  ["CC(C)CNC(=O)N1CCc2c(c(-c3nc(-c4ccc(F)cc4)no3)nn2C)C1", 940],
  ["O=C(NCc1ccccc1Cl)C(=O)NCC1CCN(C(=O)Oc2ccccc2)CC1", 893],
  ["O=C(CC1CCCC1)NCC1(c2ccccc2)CCCOCC1 (stereo not given)", 872],
  ["COc1ccc(NC(=O)N2CCC3(C2)C(=O)Nc2ccc(OC)cc23)cc1 (stereo not given)", 697],
  ["CN(C)c1nn(CC(=O)NCc2cccc(C(F)(F)F)c2)cc1-c1ccccc1", 984],
  ["Cc1nc(-c2csc(S(=O)(=O)N3CCC(C(=O)Nc4ccc5c(c4)OCCO5)CC3)c2)no1", 868],
  ["Cc1csc(-c2csc(S(=O)(=O)N3CCN(c4ccccc4)CC3)c2)n1", 1090],
  ["CCC(C)NC(=O)C1CCN(Cc2cn(C)c3ccc(Cl)cc23)CC1 (stereo not given)", 673],
  ["Cc1cc2c(cc(C(=O)N3CCC(C(=O)N4CCCC4)CC3)n2Cc2c(F)cccc2Cl)o1", 897],
  ["COCc1nnc(C(=O)Nc2ccc(C(=O)NCCc3c[nH]c4ccc(OC)cc34)cc2)s1", 790]
]}

* * *

# method: gradient 5% acetonitrile 3 min, to 50% in 2 min, to 85% in 15 min, held 3 min, 100 µL/min
# condition: column: Zorbax Extend-C18 2.1 x 50 mm; eluents: water / acetonitrile, 0.1% formic acid
Class definitions on RP-LC retention time: class 1 (below 700 s), class 2 (700 s to below 900 s), class 3 (900 s or more)

{"columns": ["compound", "discrete_label"],
 "data": [
  ["Fc1ccc(C2Cn3nnc(-c4nc(-c5ccccc5F)no4)c3CO2)cc1 (stereo unspecified)", "class 3"],
  ["O=C(NCc1cc(-c2ccc3c(c2)OCCO3)on1)c1ccc2nsnc2c1", "class 2"],
  ["O=C([C@@H]1C[C@H](F)CN1C(=O)Nc1cc(F)cc(F)c1)N1CCCCC1", "class 2"],
  ["Cc1ccc(NC(=O)N2CCC(C)(C(=O)NCc3ccc(F)cc3)CC2)cc1Cl", "class 1"],
  ["O=C(NCc1cccs1)C1CCCN(C(=O)C2Sc3ccccc3NC2=O)C1 (stereo unspecified)", "class 2"],
  ["C=CCn1c2ccccc2c2nnc(SC(CC)C(=O)Nc3nc(-c4ccccc4)cs3)nc21 (stereo unspecified)", "class 3"],
  ["CN(Cc1cccs1)C(=O)Nc1ccccc1", "class 2"],
  ["O=C(c1ccc(/C=C/c2n[nH]c3ccccc23)cc1)N1CCNCC1", "class 1"],
  ["Cc1ccc2[nH]cc(CCN3CC(C(=O)Nc4ccc5c(c4)OCO5)CC3=O)c2c1 (stereo unspecified)", "class 2"]
]}

* * *

# method: gradient 5% acetonitrile 3 min, to 50% in 2 min, to 85% in 15 min, held 3 min, 100 µL/min
# condition: column: Zorbax Extend-C18 2.1 x 50 mm; eluents: water / acetonitrile, 0.1% formic acid
Doc: threshold 800 s (exclusive). Items with RP-LC retention time beneath it return Condition met; others return Condition not met.

{"columns": ["molecule", "discrete_label"],
 "data": [
  ["Cc1nc(-c2ccc3c(c2)CCN3C(=O)c2cccc(C#N)c2)cs1", "Condition not met"],
  ["CS(=O)(=O)N1CCC(C(=O)Nc2ccc(Cl)c(C(F)(F)F)c2)Oc2ccccc21 (centres undefined)", "Condition not met"],
  ["Cc1ccc(-c2noc(-c3ccccc3S(=O)(=O)NCCC(C)C)n2)cc1", "Condition not met"],
  ["Cc1nn(C(C)C(=O)NCCCN2CCCCC2)c(=O)c2c(-n3cccc3)n(-c3ccccc3)nc12 (centres undefined)", "Condition met"],
  ["O=C(NCCc1ccc(Cl)cc1)c1nnc(-c2ccc(S(=O)(=O)N3CCCC3)cc2)o1", "Condition not met"],
  ["O=S(=O)(c1cccc(Cl)c1)N1CCN(c2cnn3c(C4CC4)nnc3c2)CC1", "Condition met"],
  ["CN1C(=O)c2cccnc2Sc2cc(C(=O)NC3CCCC3)ccc21", "Condition met"]
]}

* * *

# method: gradient 5% acetonitrile 3 min, to 50% in 2 min, to 85% in 15 min, held 3 min, 100 µL/min
# condition: column: Zorbax Extend-C18 2.1 x 50 mm; eluents: water / acetonitrile, 0.1% formic acid
Class definitions on RP-LC retention time: low (below 600 s), mid (600 s to below 800 s), high (800 s or more)

{"columns": ["compound", "discrete_label"],
 "data": [
  ["CC(C)S(=O)(=O)N1CC(N(C)Cc2cccnc2)C1", "low"],
  ["Cc1noc(C)c1S(=O)(=O)Nc1cccc(-c2nc(-c3cccc(Br)c3)co2)c1", "high"],
  ["Cc1cc(C2CCCN2C(=O)Nc2ccccc2Cl)on1 (stereo not given)", "high"],
  ["Cc1noc(C)c1CN1CCC(NC(=O)c2ccc(F)cc2F)C1 (stereo not given)", "low"],
  ["CCS(=O)(=O)c1ccc2c(c1)N(Cc1nc(-c3ccc(C)c(C)c3)no1)C(=O)CO2", "high"],
  ["CCN1CCN(C(=O)C2CCCN(c3nc4ccccc4n(Cc4ccccc4)c3=O)C2)CC1 (stereo not given)", "mid"],
  ["CCN1C(=O)c2cc(C(=O)NCCCc3ccccc3)nn2CC1(C)C(=O)NC1CCCC1 (stereo not given)", "high"],
  ["CCCN1C(=O)c2c(C(=O)NCc3ccccc3)ncn2CC1(C)C(=O)NC1CCCC1 (stereo not given)", "mid"],
  ["O=C(CCc1ccccc1)Nc1cnn(-c2ncncc2N2CCOCC2)c1", "mid"],
  ["O=C(Cc1ccsc1)Nc1ccc(-c2nnc3n2CCCC3)cc1", "mid"],
  ["Cn1cccc(C(=O)NCCCn2cccc2)c1=O", "mid"],
  ["CCN(CC)CCCNc1ncnc2c1cnn2-c1cccc(Cl)c1", "mid"],
  ["Cc1cccc(-c2ccc(N3CCCC(C(=O)NC4CCCC4)C3)nn2)c1 (stereo not given)", "mid"]
]}

* * *

# method: gradient 5% acetonitrile 3 min, to 50% in 2 min, to 85% in 15 min, held 3 min, 100 µL/min
# condition: column: Zorbax Extend-C18 2.1 x 50 mm; eluents: water / acetonitrile, 0.1% formic acid
Class definitions on RP-LC retention time: label 0 (below 700 s), label 1 (700 s to below 900 s), label 2 (900 s or more)

{"columns": ["compound", "discrete_label"],
 "data": [
  ["COC1CCC12CCN(C(=O)c1cnccn1)CC2 (stereo unspecified)", "label 0"],
  ["COc1ccc(OC)c(-c2cc(C(=O)NCc3nc(C)no3)[nH]n2)c1", "label 0"],
  ["COc1cc(CNS(=O)(=O)c2cn(C(C)C)c3ncccc23)cc(OC)c1", "label 1"],
  ["Cn1cc(-c2ccncc2)cc1C(=O)N1CCN(c2ccc(F)cc2)CC1", "label 0"],
  ["O=C(NC1CCCC1)C1CCN(c2nc3ccc(-c4cccnc4)nc3s2)CC1", "label 0"],
  ["COC(=O)c1nnc2c(-c3ccccc3OC)c(C)nn2c1C", "label 1"],
  ["CC(C)Cc1ccc(-c2csc(NC(=O)c3cnccn3)n2)cc1", "label 2"],
  ["COc1ccc(CNCCSc2nnnn2C)c(OC)c1", "label 0"],
  ["CCc1nc(-c2csc(S(=O)(=O)N3CCC(C(=O)NCc4cccc(C)c4)CC3)c2)no1", "label 2"]
]}

// data source = the METLIN SMRT retention time set (Domingo-Almenara et al. 2019)
